Origin of values: paper PMC12820563

# measured_on: MBP-FoxP3dN (Mus musculus, UniProt Q99JB6 188-423)
# Sequence: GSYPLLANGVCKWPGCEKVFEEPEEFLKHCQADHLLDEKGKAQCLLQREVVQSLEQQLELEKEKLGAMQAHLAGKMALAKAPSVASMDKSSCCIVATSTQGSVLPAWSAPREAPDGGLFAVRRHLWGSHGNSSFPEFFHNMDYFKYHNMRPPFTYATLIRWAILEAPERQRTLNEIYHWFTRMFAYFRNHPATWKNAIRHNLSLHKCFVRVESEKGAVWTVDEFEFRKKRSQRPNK
# test: PD-seq (MBP pull-down with sequencing); 20 mM Tris-HCl pH 7.5, 100 mM NaCl, 1.5 mM MgCl2, 0.4 uM protein, 0.1 uM dsDNA library, 30 min, room temperature, amylose pull-down; high values mean tight binding
# study_conditions: protein: recombinant; tags: His6-MBP; chain copies: 2; dsDNA, one strand shown
In all, about 16,000 sequences were measured (“rpm ratio (pull-down/input)”: median about 0.5, highest 2% from about 5.5 on). Shown is part of a subset that was picked to be rich in the highest values.
measurement_name: binding signal

These solved cases illustrate the format of a correct answer.
>>> measured_result("GATGATTGTTCTCCCAGCTGATGAATTGTGTAAATCGAGTAAACAAATTTTCCTAATCTTTCTGTTCAAGCGCCATCTAC")
"0.96 RPM ratio (pull-down/input)"
>>> measured_result("GATGATTGTTCTCCCAGCTGATGAATTCATTCCGTCGAGTAAACAAATTTTCCTAATCTTTCTGTTCAAGCGCCATCTAC")
"0.236 RPM ratio (pull-down/input)"
>>> measured_result("GATGATTGTTCTCCCAGCTGATGAATTATGATGTTCGAGTAAACAAATTTTCCTAATCTTTCTGTTCAAGCGCCATCTAC")
"3.29 RPM ratio (pull-down/input)"

Need binding signal of GATGATTGTTCTCCCAGCTGATGAATTGCTTATGTCGAGTAAACAAATTTTCCTAATCTTTCTGTTCAAGCGCCATCTAC , thanks.
1.87 RPM ratio (pull-down/input)

Need binding signal of GATGATTGTTCTCCCAGCTGATGAATTGAGTATATCGAGTAAACAAATTTTCCTAATCTTTCTGTTCAAGCGCCATCTAC , thanks.
1.7 RPM ratio (pull-down/input)

Need binding signal of GATGATTGTTCTCCCAGCTGATGAATTTGCGAATTCGAGTAAACAAATTTTCCTAATCTTTCTGTTCAAGCGCCATCTAC , thanks.
1.18 RPM ratio (pull-down/input)

Need binding signal of GATGATTGTTCTCCCAGCTGATGAATTCTCTGTATCGAGTAAACAAATTTTCCTAATCTTTCTGTTCAAGCGCCATCTAC , thanks.
0.441 RPM ratio (pull-down/input)

Need binding signal of GATGATTGTTCTCCCAGCTGATGAATTGCATTTTTCGAGTAAACAAATTTTCCTAATCTTTCTGTTCAAGCGCCATCTAC , thanks.
3.02 RPM ratio (pull-down/input)

Need binding signal of GATGATTGTTCTCCCAGCTGATGAATTATTGTGTTCGAGTAAACAAATTTTCCTAATCTTTCTGTTCAAGCGCCATCTAC , thanks.
2.16 RPM ratio (pull-down/input)
